Where these numbers come from: patent EP2913333A1

UniProt Q830N0 measurements of pIC50, listed per entry.
Please report pIC50 as the negative decimal logarithm of the molar concentration, giving only the number.

Task: Test system UniProt Q830N0; read-out pIC50; what value for CCn1cnc2cc(-c3sc(N4CC[C@H](CO)C4)c4c(=O)[nH]cnc34)ccc21 [Example 45] ?
Output: 7.15

Task: Reported pIC50 for UniProt Q830N0, given O=c1[nH]cnc2c1c(CCCO)cn2-c1ccc2c(c1)ncn2C1CCCCC1 [Example 51] ?
Output: 6.48

Task: Record O=c1[nH]cnc2c(-c3ccc4c(c3)ncn4C3CCCCC3)sc(N3CCC(CO)(CO)C3)c12 [Example 13] : what is its pIC50 with UniProt Q830N0?
Output: 7.39

Task: Recall the recorded pIC50 for CN(C)CCCn1cc(-c2ccc3c(c2)ncn3C2CCCCC2)c2nc[nH]c(=O)c21 [Example 80] with UniProt Q830N0 and state it.
Output: 7.26

Task: Form field: pIC50 recorded for CN1CC=C(c2cn(-c3ccc4c(c3)ncn4C3CCCCC3)c3nc[nH]c(=O)c23)CC1 [Example 53] with UniProt Q830N0 (enter value)
Output: 7.89

Task: Form entry - test system: UniProt Q830N0; read-out: pIC50; molecule: O=c1[nH]cnc2c(-c3ccc4c(c3)ncn4C3CCCCC3)cn(CCCCCO)c12 [Example 68]
Output: 6.49

Further cases:
Task: Hi! What's the reported pIC50 for O=c1[nH]cnc2c(-c3ccc4c(c3)ncn4[C@@H]3CCCC[C@H]3F)sc(N3CC[C@H](CO)C3)c12 [Example 47] on UniProt Q830N0?
Output: 7.34

Task: Kindly state the measured pIC50 obtained for O=c1[nH]cnn2c(-c3ccc4c(c3)ncn4C3CCCCC3)cc(N3CC[C@H](CO)C3)c12 [Example 63] with UniProt Q830N0.
Output: 6.46

###

# assayedTarget: S. Agalactiae DltA (Streptococcus agalactiae serotype III, UniProt Q8VM67)
# Sequence (Q8VM67 1-511): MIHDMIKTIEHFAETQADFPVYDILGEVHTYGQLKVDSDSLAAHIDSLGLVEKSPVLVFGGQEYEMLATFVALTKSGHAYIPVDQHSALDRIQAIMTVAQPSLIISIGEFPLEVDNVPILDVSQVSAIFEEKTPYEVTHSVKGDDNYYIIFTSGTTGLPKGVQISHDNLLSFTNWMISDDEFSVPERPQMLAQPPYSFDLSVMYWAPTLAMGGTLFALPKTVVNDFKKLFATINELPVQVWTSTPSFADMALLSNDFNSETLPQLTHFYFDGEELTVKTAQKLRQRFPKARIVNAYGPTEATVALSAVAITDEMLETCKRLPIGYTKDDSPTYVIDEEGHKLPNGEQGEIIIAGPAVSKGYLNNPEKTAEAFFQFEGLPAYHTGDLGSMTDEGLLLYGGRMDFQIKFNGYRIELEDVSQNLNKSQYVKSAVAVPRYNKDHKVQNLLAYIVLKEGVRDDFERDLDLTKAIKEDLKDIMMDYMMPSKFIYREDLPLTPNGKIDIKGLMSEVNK
Structures can show the parent of a compound that is named as a salt.
# key: entry, value: pIC50
Please treat pIC50 as minus the base-10 logarithm of the molar concentration.

Please review the following examples before continuing.
Task: I'd like to know its pIC50. The compound in question is CN(C)CCCn1cc(-c2ccc3c(c2)ncn3C2CCCCC2)c2nc[nH]c(=O)c21 [Example 80]
Output: 5.82

Task: Return reported pIC50; argument: CC(C)N1CCC(n2cc(-c3ccc4c(c3)ncn4C3CCCCC3)c3nc[nH]c(=O)c32)CC1 [Example 82]
Output: 5.72

Task: Given the entry O=c1[nH]cnc2c(-c3ccc4c(c3)ncn4C3CCCCC3)cn(C3CCCC(O)C3)c12 (racemic) [Example 70A] , report its measured pIC50.
Output: 5.62

Task: So what does the record say about pIC50 for O=c1[nH]cnc2c(-c3ccc4c(c3)ncn4C3CCCCC3)cn(C3CCOCC3)c12 [Example 81] ?
Output: 5.60

Task: Would you kindly share the measured pIC50 for O=c1[nH]cnn2c(-c3ccc4c(c3)ncn4C3CCCCC3)cc(N3CC[C@H](CO)C3)c12 [Example 63] ?
Output: 4.60

Task: Would you mind telling me what pIC50 value was observed for CN1CC=C(c2sc(-c3ccc4c(c3)ncn4C3CCCCC3)c3nc[nH]c(=O)c23)CC1 [Example 38, hydrochloride] ?
Output: 6.04

Continuing:
Task: Look up pIC50: O=c1[nH]cnc2c(-c3ccc4c(c3)ncn4C3CCCCC3)sc(N3CCC(CO)(CO)C3)c12 [Example 13]
Output: 6.01

Task: Please report the recorded pIC50 for O=c1[nH]cnc2c(-c3ccc4c(c3)ncn4C3CCCCC3)cn(C3CCNC3)c12 (centres unmarked) [Example 77] .
Output: 5.80

###

# assayedTarget: E. feacalis DltA (Enterococcus faecalis, UniProt Q830N0)
# Sequence (Q830N0 1-506): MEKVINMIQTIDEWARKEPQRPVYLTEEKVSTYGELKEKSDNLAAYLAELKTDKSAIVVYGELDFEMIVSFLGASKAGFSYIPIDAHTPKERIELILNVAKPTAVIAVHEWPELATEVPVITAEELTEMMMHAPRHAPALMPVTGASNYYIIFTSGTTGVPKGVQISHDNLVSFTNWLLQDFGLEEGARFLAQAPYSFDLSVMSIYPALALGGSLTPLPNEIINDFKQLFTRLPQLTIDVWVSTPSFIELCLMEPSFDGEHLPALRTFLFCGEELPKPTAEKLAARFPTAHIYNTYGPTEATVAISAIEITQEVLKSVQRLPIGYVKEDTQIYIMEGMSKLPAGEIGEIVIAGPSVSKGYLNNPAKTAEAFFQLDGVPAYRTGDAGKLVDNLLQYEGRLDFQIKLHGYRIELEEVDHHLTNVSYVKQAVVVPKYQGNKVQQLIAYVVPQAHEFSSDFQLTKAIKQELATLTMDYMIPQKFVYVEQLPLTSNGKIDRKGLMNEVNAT
Where a name gives a salt, the structure may show the parent alone.
# pIC50 per entry
Just the number, please; pIC50 means minus log10 of the concentration in mol/L.

Use these answered entries as a reference point.
Task: Need pIC50 of O=c1[nH]cnc2c(-c3ccc4c(c3)ncn4C3CCCCC3)sc(N3CCNCC3)c12 [Example 28, hydrochloride] , thanks.
Output: 7.32

Task: GET /values?readout=pIC50&item= O=c1[nH]cnc2c(-c3ccc4c(c3)ncn4C3CCCCC3)cn(C3CCNC3)c12 (stereo not shown) [Example 77]
Output: 6.89

Task: Fill blank: measured pIC50 of the molecule CC(C)N1CCC(n2cc(-c3ccc4c(c3)ncn4C3CCCCC3)c3nc[nH]c(=O)c32)CC1 [Example 82] is ____.
Output: 7.00

---
Task: Given the entry O=c1[nH]cnc2c(-c3ccc4c(c3)ncn4C3CCCCC3)cn([C@H]3CCCNC3)c12 [Example 76] , report its measured pIC50.
Output: 7.16

###

# assayedTarget: E. feacalis DltA (Enterococcus faecalis, UniProt Q830N0)
# Sequence (Q830N0 1-506): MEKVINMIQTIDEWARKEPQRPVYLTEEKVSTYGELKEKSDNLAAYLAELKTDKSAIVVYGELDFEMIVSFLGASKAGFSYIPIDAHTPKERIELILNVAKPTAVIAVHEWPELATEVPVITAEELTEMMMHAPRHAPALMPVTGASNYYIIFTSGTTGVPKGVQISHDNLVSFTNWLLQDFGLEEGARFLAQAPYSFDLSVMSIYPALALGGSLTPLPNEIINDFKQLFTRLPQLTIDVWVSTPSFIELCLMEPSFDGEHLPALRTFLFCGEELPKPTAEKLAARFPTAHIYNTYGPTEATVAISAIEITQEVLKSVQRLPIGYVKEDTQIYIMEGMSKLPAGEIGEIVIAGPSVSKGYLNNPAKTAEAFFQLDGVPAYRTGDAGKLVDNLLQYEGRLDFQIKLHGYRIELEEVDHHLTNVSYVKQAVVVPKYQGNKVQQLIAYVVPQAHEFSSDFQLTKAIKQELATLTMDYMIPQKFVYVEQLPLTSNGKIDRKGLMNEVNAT
Counter-ions that a name gives are not always drawn.
Each record here notes measured pIC50.
Friendly reminder that pIC50 comes from taking -log10 of the concentration in mol/L.

Completed entries (count: 3):
Task: What value of measured pIC50 is listed for O=c1[nH]cnc2c(-c3ccc4c(c3)ncn4C3CCCCC3)sc(N3CC4CNCC4C3)c12 (stereo not shown) [Example 25, hydrochloride] ?
Output: 7.66

Task: Quick one: pIC50 for O=c1[nH]cnc2c(-c3ccc4c(c3)ncn4C3CCCCC3)cn(C3CCC(O)C3)c12 (racemic) [Example 71A] ?
Output: 6.44

Task: Query (compound): O=c1[nH]cnc2c(-c3ccc4c(c3)ncn4C3CCCCC3)cn(C3CCNCC3)c12 ; field requested: pIC50
Output: 7.21

Next up:
Task: Look at this compound and give its reported pIC50. O=c1[nH]cnc2c(-c3ccc4c(c3)ncn4C3CCCCC3)sc(N3C[C@@H]4[C@@H](CO)[C@@H]4C3)c12
Output: 6.80
